Source of measurements: patent US11071731B2

Reported pEC50 by item:
biological target: mu opioid receptor (MOR) (Homo sapiens); experiment: PathHunter β-arrestin recruitment assay, PAM mode with EC20 endomorphin-1; format: cell-based; settings: β-arrestin recruitment; read-out: β-arr. EC50
pEC50: −log10 of the molar value.

# example entries with known answers
Molecule	Subject of test	pEC50
Fc1ccc(CN2CCCCC2c2cccc(C(F)(F)F)n2)cc1Cl (stereo not shown) [compound 161]	mu opioid receptor (MOR) (Homo sapiens)	5.68 to 6.15
Fc1ccc(Cl)nc1N1CCCCC1c1cncc(Cl)n1 (stereo not shown) [compound 395]	mu opioid receptor (MOR) (Homo sapiens)	> 6.15
Fc1cnc(Cl)nc1N1CCC(F)CC1c1cccc(C(F)(F)F)c1 (stereo not shown) [compound 197]	mu opioid receptor (MOR) (Homo sapiens)	5.68 to 6.15
CN(C)c1ncc(F)c(N2CCCCC2c2cccc(F)n2)n1 (stereo not shown) [compound 242]	mu opioid receptor (MOR) (Homo sapiens)	< 5.68
Fc1ccc(C2CCCCN2Cc2cccc(Cl)n2)cc1Cl (stereo not shown) [compound 1]	mu opioid receptor (MOR) (Homo sapiens)	> 6.15

The measured pEC50 associated with CCCC1(F)CCCN(c2nc(Cl)ncc2F)C1c1cccc(C(F)(F)F)c1 (stereo not shown) [compound 424] reads < 5.68

The measured pEC50 associated with Fc1ccc(C2CCCCN2c2nc(Cl)ncc2F)cc1Br (stereo not shown) [compound 124] reads > 6.15

---

target: mu opioid receptor (MOR) (Homo sapiens, UniProt P35372); assay: Hit Hunter cAMP signaling assay (adenylyl cyclase inhibition), PAM mode with EC20 endomorphin-1; format: cell-based; conditions: adenylyl cyclase inhibition; read-out: cAMP EC50
Sequence (P35372 whole entry): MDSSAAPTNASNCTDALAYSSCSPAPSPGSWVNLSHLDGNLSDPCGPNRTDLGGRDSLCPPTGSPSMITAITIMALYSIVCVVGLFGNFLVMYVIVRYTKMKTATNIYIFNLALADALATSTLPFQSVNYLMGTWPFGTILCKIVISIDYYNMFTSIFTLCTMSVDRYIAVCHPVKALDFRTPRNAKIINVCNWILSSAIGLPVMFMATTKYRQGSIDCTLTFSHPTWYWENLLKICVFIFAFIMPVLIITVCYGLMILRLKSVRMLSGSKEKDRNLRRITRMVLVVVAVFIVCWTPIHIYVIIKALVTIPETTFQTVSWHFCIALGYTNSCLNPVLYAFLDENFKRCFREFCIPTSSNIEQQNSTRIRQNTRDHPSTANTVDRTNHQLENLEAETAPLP
Measurement label: EC50

# example entries with known answers
Compound	EC50
Cc1ccc(C2C(C)CCN2S(=O)(=O)c2ccc(Cl)cc2)cc1Br (mixture of isomers)	700 to 2100 nM
CC1CCN(S(=O)(=O)c2ccc(Cl)cc2)C1c1ccc(F)c(C#N)c1 (mixture of isomers)	> 2100 nM
N#Cc1cc(C2CCCCN2S(=O)(=O)c2ccc(Cl)cc2)ccn1 (racemic)	> 2100 nM
Fc1ccc(C2C(F)CCCN2c2nc(Cl)ncc2F)cc1Br (stereo not shown)	700 to 2100 nM
CCC1CCCN(c2nc(Cl)ncc2F)C1c1ccc(OC)c(Br)c1 (stereo not shown) [compound 251]	> 2100 nM

Recorded EC50 for CC(=O)N1CCN(c2nc(Cl)ncc2F)C(c2cc(F)cc(C(F)(F)F)c2)C1 (racemic) on mu opioid receptor (MOR) (Homo sapiens, UniProt P35372) was > 2100 nM

Recorded EC50 for Fc1cc(C2CCC(OCCN3CCOCC3)CN2c2nc(Cl)ncc2F)cc(C(F)(F)F)c1 (stereo not shown) on mu opioid receptor (MOR) (Homo sapiens, UniProt P35372) was > 2100 nM

Recorded EC50 for COc1ncc(N2CCCCC2c2cccc(C(F)(F)F)c2)c(F)n1 (stereo not shown) on mu opioid receptor (MOR) (Homo sapiens, UniProt P35372) was > 2100 nM

Recorded EC50 for CC1CCN(S(=O)(=O)c2ccc(Cl)cc2)C1c1ccc2c(c1)OCO2 (mixture of isomers) on mu opioid receptor (MOR) (Homo sapiens, UniProt P35372) was > 2100 nM

Recorded EC50 for O=S(=O)(Cc1ccc(Cl)cc1)N1CCCCC1c1cccc(C(F)(F)F)c1 (stereo not shown) on mu opioid receptor (MOR) (Homo sapiens, UniProt P35372) was > 2100 nM

---

biological target: mu opioid receptor (MOR) (Homo sapiens, UniProt P35372); test: PathHunter β-arrestin recruitment assay, PAM mode with EC20 endomorphin-1; assay type: cell-based; details: β-arrestin recruitment; read-out: β-arr. EC50
Measurement label: EC50

# example entries with known answers
Compound	Measurement label	Measured
Fc1cnc(Cl)nc1N1CCCCC1c1cccc2cnnn12 (stereo not shown)	EC50	< 700 nM
COc1ccc(C2CCCCN2c2ncc(C)c(Cl)n2)cc1Br (stereo not shown)	EC50	> 2100 nM
O=S(=O)(c1ccc(Cl)cc1)N1CCCCC1c1ccc(F)c(Br)c1 (single isomer, unassigned) [compound 446]	EC50	> 2100 nM
Fc1ccc(Cl)cc1C1CCCCN1c1ccnc(Cl)n1 (stereo not shown)	EC50	< 700 nM
O=S(=O)(c1ccc(Cl)cc1)N1CCCCC1c1ccc(Cl)c(C(F)(F)F)c1 (single isomer, unassigned) [compound 69]	EC50	> 2100 nM

The measured EC50 associated with COC(=O)c1ccc(N2CCCCC2c2ccc(F)c(Cl)c2)cc1 (stereo not shown) reads > 2100 nM

The measured EC50 associated with Fc1cnc(Cl)nc1N1CCSCC1c1cccc(C(F)(F)F)c1 (stereo not shown) reads > 2100 nM

---

biological target: mu opioid receptor (MOR) (Homo sapiens, UniProt P35372); experiment: Hit Hunter cAMP signaling assay (adenylyl cyclase inhibition), PAM mode with EC20 endomorphin-1; type: cell-based; conditions: cAMP EC50, adenylyl cyclase inhibition
Measurement label: EC50

# example entries with known answers
Compound	EC50
Fc1cnc(Cl)nc1N1CCCCC1c1nc2ccccc2s1 (stereo not shown)	< 700 nM
C=C1CCN(c2nc(Cl)ncc2F)C(c2cc(F)cc(C(F)(F)F)c2)C1 (stereo not shown)	< 700 nM
Fc1ccc(C2CCCCN2Cc2cc(Cl)ccn2)cc1Cl (stereo not shown)	700 to 2100 nM

Okay, now this compound:
Recorded EC50 for FC(F)(F)c1cccc(C2CCCCN2Cc2cc(Cl)ccn2)n1 (stereo not shown) on mu opioid receptor (MOR) (Homo sapiens, UniProt P35372) was > 2100 nM

---

target: mu opioid receptor (MOR) (Homo sapiens, UniProt P35372); test: PathHunter β-arrestin recruitment assay, PAM mode with EC20 endomorphin-1; type: cell-based; settings: β-arrestin recruitment; read-out: β-arr. EC50
pEC50: −log10 of the molar value.
Reported pEC50 by item:

# example entries with known answers
Compound	pEC50
COc1ccc(C2C(C(F)(F)F)CCN2S(=O)(=O)c2ccc(Cl)cc2)cc1Br (single isomer, unassigned) [Compound 108]	< 5.68
Fc1cc(Cl)cc(CN2CCCCC2c2cccc(C(F)(F)F)n2)c1 (stereo not shown) [compound 164]	5.68 to 6.15
Fc1ccc(C2CCCCN2c2nc(Cl)ncc2F)cc1C(F)F (stereo not shown) [compound 299]	5.68 to 6.15
Fc1cnc(Cl)nc1N1CCCCC1c1cncc(C(F)(F)F)n1 (stereo not shown) [compound 274]	< 5.68

The measured pEC50 associated with COc1ncc(F)c(N2CCCCC2c2cccc(C(F)(F)F)c2)n1 (stereo not shown) [compound 271] reads < 5.68

The measured pEC50 associated with COc1ncccc1C1CCCCN1c1nc(Cl)ncc1F (stereo not shown) [compound 380] reads > 6.15

The measured pEC50 associated with Fc1cnc(Cl)nc1N1CCCCC1c1ccnc(Cl)c1 (stereo not shown) [compound 328] reads > 6.15

The measured pEC50 associated with COc1ccc(C2CC(C(F)(F)F)CN2S(=O)(=O)c2ccc(Cl)cc2)cc1Br (single isomer, unassigned) [Compound 119] reads < 5.68

The measured pEC50 associated with COc1ccc(C2CCCCN2c2nc(Cl)ncc2C)cc1Br (stereo not shown) [compound 234] reads < 5.68

The measured pEC50 associated with Fc1cnc(Cl)nc1N1CCCCC1c1cc(C(F)(F)F)c2[nH]cnc2c1 (stereo not shown) [compound 417] reads > 6.15

The measured pEC50 associated with Cc1nnc(C2CCCCN2c2nc(Cl)ncc2F)o1 (stereo not shown) [compound 363] reads > 6.15

The measured pEC50 associated with COc1ccc(C2CCCCN2c2nc(Cl)ncc2F)cc1Br (stereo not shown) [compound 132] reads < 5.68

The measured pEC50 associated with Fc1cc(C2COCCN2Cc2cc(Cl)ccc2F)cc(C(F)(F)F)c1 (racemic) [Compound 195] reads 5.68 to 6.15

The measured pEC50 associated with FC(F)(F)c1cccc(C2CCCCN2Cc2ccc(Cl)c(Cl)c2)n1 (stereo not shown) [compound 153] reads < 5.68

The measured pEC50 associated with CC1CCN(S(=O)(=O)c2ccc(Cl)cc2)C1c1cccc(Cl)c1 (stereo not shown) [Compound 107] reads < 5.68

The measured pEC50 associated with COc1ccc(C2COCCN2Cc2cc(Cl)ccc2F)cc1Br (racemic) [Compound 192] reads < 5.68

The measured pEC50 associated with COC(=O)c1ccc(N2CCCCC2c2cccc(C(F)(F)F)n2)cc1 (stereo not shown) [compound 478] reads < 5.68

---

biological target: mu opioid receptor (MOR) (Homo sapiens, UniProt P35372); test: Hit Hunter cAMP signaling assay (adenylyl cyclase inhibition), PAM mode with EC20 endomorphin-1; type: cell-based; settings: adenylyl cyclase inhibition; read-out: cAMP EC50
Measurement label: EC50

Molecule	EC50
Fc1cnc(Cl)nc1N1CCOCC1c1cccc(C(F)(F)F)n1 (racemic)	> 2100 nM
O=S(=O)(c1ccc(Cl)cc1)N1C2CCC(C2)C1c1ccc(F)c(Br)c1 (stereo not shown) [Compound 179]	< 700 nM
O=S(=O)(c1ccc(Cl)cc1)N1CCCCC1c1cc(F)cc(C(F)(F)F)c1 (racemic) [compound 72]	< 700 nM
COc1ccc(C2C3CCC(C3)N2S(=O)(=O)c2ccc(Cl)cc2)cc1Br (stereo not shown)	> 2100 nM
COc1ncc(N2CCCCC2c2cccc(F)n2)c(F)n1 (stereo not shown)	> 2100 nM

The measured EC50 associated with O=S(=O)(c1cc(F)ccc1F)N1CCCC(F)C1c1ccc(F)c(Br)c1 (stereo not shown) reads > 2100 nM

The measured EC50 associated with O=S(=O)(c1ccc(Cl)cc1F)N1CCCCC1c1cccc(C(F)(F)F)c1 (stereo not shown) reads > 2100 nM
